Source listed as paper PMC6589325.

target: HIV-1 IN (Human immunodeficiency virus type 1 group M subtype B); construct: using HIV-1 IN enzymes according to the multiplate integration assay (MIA); experiment: HIV-1 IN inhibitory activity, multiplate integration assay (MIA); assay type: biochemical; conditions: 100 μM; read-out: % Inhibition at various concentrations
Kind request: treat 70% as inclusive, so inhibition at 100 µM at 70% or higher is rule met, anything lower is rule not met.

(Q) Item C=C(C)[C@@H]1CC[C@]2(C)CC[C@]3(C)[C@H](CC[C@@H]4[C@@]5(C)CC[C@H](O)C(C)(C)[C@@H]5CC[C@]43C)[C@@H]12 with inhibition at 100 µM of 70% or above?
(A) rule not met

(Q) Determine whether this compound has inhibition at 100 µM no lower than 70%: Cc1ccc(C(=O)Nc2ccc(S(=O)(=O)O)c3cc(S(=O)(=O)O)cc(S(=O)(=O)O)c23)cc1NC(=O)c1cccc(NC(=O)Nc2cccc(C(=O)Nc3cc(C(=O)Nc4ccc(S(=O)(=O)O)c5cc(S(=O)(=O)O)cc(S(=O)(=O)O)c45)ccc3C)c2)c1 [Suramin, reference compound]
(A) rule met

(Q) Has CC1(C)CC[C@]2(C(=O)O)CC[C@]3(C)C(=CC[C@@H]4[C@@]5(C)CC[C@H](O)C(C)(C)[C@@H]5CC[C@]43C)[C@@H]2C1 a recorded inhibition at 100 µM greater than or equal to 70%?
(A) rule not met

(Q) Decide: inhibition at 100 µM of C=C(C)[C@@H]1CC[C@]2(C(=O)O)CC[C@]3(C)[C@H](CC[C@@H]4[C@@]5(C)CC[C@H](O)C(C)(C)[C@@H]5CC[C@]43C)[C@@H]12 >= 70%?
(A) rule not met

(Q) Could you please find out whether C[C@H]1[C@H](C)CC[C@]2(C(=O)O)CC[C@]3(C)C(=CC[C@@H]4[C@@]5(C)CC[C@H](O)C(C)(C)[C@@H]5CC[C@]43C)[C@H]12 has inhibition at 100 µM that meets 70% or exceeds it?
(A) rule not met

* * *

target: HIV-1 IN (Human immunodeficiency virus type 1 group M subtype B); construct: using HIV-1 IN enzymes according to the multiplate integration assay (MIA); test: HIV-1 IN inhibitory activity, multiplate integration assay (MIA); format: biochemical; conditions: 10 μM; read-out: % Inhibition at various concentrations
property: inhibition at 10 µM (%)
Give bare numbers, in %.

For orientation, consider the following solved cases.
compound	inhibition at 10 µM (%)
Cc1ccc(C(=O)Nc2ccc(S(=O)(=O)O)c3cc(S(=O)(=O)O)cc(S(=O)(=O)O)c23)cc1NC(=O)c1cccc(NC(=O)Nc2cccc(C(=O)Nc3cc(C(=O)Nc4ccc(S(=O)(=O)O)c5cc(S(=O)(=O)O)cc(S(=O)(=O)O)c45)ccc3C)c2)c1 [Suramin, reference compound]	70.9
C=C(C)[C@@H]1CC[C@]2(CO)CC[C@]3(C)[C@H](CC[C@@H]4[C@@]5(C)CC[C@H](O)C(C)(C)[C@@H]5CC[C@]43C)[C@@H]12	41.2

Hey, quick one: what's inhibition at 10 µM for each of these?
1. C[C@H]1[C@H](C)CC[C@]2(C(=O)O)CC[C@]3(C)C(=CC[C@@H]4[C@@]5(C)CC[C@H](O)C(C)(C)[C@@H]5CC[C@]43C)[C@H]12
2. CC1(C)CC[C@]2(C(=O)O)CC[C@]3(C)C(=CC[C@@H]4[C@@]5(C)CC[C@H](O)C(C)(C)[C@@H]5CC[C@]43C)[C@@H]2C1
3. C=C(C)[C@@H]1CC[C@]2(C)CC[C@]3(C)[C@H](CC[C@@H]4[C@@]5(C)CC[C@H](O)C(C)(C)[C@@H]5CC[C@]43C)[C@@H]12
4. C=C(C)[C@@H]1CC[C@]2(C(=O)O)CC[C@]3(C)[C@H](CC[C@@H]4[C@@]5(C)CC[C@H](O)C(C)(C)[C@@H]5CC[C@]43C)[C@@H]12

(A)
1: 31.6; 2: 33.4; 3: 12.2; 4: 39
